# Protocol text: Caco-2 Permeability Assay (bidirectional)
# Format: in vitro ADME
# Test conditions: human, Caco-2; (Papp B→A)/(Papp A→B)
Recorded measurements of efflux ratio at 120 min, 1 µM, one per entry
# print the numeric value only

O=C(Cc1ccccc1)Nc1ccc(CCCCc2nnc(NC(=O)C(O)c3cccc(Cl)c3)s2)nn1 (centres unmarked)	18
O=C(Cc1cccc(OC(F)(F)F)c1)Nc1ccc(CCCCc2nnc(NC(=O)C(O)c3cccc(Cl)c3)s2)nn1 (centres unmarked)	3.5

Sample O=C(Cc1cccc(OC(F)(F)F)c1)Nc1ccc(CCCCc2nnc(NC(=O)[C@@H](O)c3ccccc3)s2)nn1 — what was its efflux ratio at 120 min, 1 µM?
6.6
